Value source: BindingDB's records for patent US20190276450

target: Non-receptor tyrosine-protein kinase TYK2 (Homo sapiens); assay: TYK2 (TYK2/JAK2 PSTAT4 T-BLAST) Alpha Screen Assay
Binary label based on EC50 with cut-off 200 nM: below gives Met, not below gives Not met.

Examples from the recorded data:
COc1cc(-c2cn(C)c3cnc(NC(C)=O)cc23)nc([C@@]2(CO)CCOC2)c1 ... Not met
CO[C@@]1(c2cc(C#N)cc(-c3cn([C@H]4CC4(F)F)c4cnc(NC(N)=O)cc34)n2)CCOC1 [US20190276450, Example 12a.2] ... Not met
COc1cc(-c2cn([C@@H]3CCOC3)c3cnc(NC(C)=O)cc23)nc([C@]2(OC)CCOC2)c1 ... Met
Cn1cc(-c2cccc(C3(O)COC3)n2)c2cc(NC(N)=O)ncc21 ... Not met
COc1cc(-c2cn(C)c3cnc(NC(C)=O)cc23)nc([C@]2(CO)CCOC2)c1 ... Met
CO[C@@]1(c2cc(O[C@H]3C[C@@H](O)C3)cc(-c3cn(C)c4cnc(NC(C)=O)cc34)n2)CCOC1 ... Met

Lab note: confirm whether the reported EC50 for this molecule is below 200 nM, equality not counting. molecule: COCCOc1cc(-c2cn(C)c3cnc(NC(C)=O)cc23)nc([C@]2(CO)CCOC2)c1
Met

Lab note: confirm whether the reported EC50 for this molecule is below 200 nM, equality not counting. molecule: COCc1cc(-c2cn(C)c3cnc(NC(N)=O)cc23)nc([C@@]2(OC)CCOC2)c1
Not met

---

target: Non-receptor tyrosine-protein kinase TYK2 (Homo sapiens, UniProt P29597); test: TYK2 (TYK2/JAK2 PSTAT4 T-BLAST) Alpha Screen Assay
Sequence (P29597 whole entry): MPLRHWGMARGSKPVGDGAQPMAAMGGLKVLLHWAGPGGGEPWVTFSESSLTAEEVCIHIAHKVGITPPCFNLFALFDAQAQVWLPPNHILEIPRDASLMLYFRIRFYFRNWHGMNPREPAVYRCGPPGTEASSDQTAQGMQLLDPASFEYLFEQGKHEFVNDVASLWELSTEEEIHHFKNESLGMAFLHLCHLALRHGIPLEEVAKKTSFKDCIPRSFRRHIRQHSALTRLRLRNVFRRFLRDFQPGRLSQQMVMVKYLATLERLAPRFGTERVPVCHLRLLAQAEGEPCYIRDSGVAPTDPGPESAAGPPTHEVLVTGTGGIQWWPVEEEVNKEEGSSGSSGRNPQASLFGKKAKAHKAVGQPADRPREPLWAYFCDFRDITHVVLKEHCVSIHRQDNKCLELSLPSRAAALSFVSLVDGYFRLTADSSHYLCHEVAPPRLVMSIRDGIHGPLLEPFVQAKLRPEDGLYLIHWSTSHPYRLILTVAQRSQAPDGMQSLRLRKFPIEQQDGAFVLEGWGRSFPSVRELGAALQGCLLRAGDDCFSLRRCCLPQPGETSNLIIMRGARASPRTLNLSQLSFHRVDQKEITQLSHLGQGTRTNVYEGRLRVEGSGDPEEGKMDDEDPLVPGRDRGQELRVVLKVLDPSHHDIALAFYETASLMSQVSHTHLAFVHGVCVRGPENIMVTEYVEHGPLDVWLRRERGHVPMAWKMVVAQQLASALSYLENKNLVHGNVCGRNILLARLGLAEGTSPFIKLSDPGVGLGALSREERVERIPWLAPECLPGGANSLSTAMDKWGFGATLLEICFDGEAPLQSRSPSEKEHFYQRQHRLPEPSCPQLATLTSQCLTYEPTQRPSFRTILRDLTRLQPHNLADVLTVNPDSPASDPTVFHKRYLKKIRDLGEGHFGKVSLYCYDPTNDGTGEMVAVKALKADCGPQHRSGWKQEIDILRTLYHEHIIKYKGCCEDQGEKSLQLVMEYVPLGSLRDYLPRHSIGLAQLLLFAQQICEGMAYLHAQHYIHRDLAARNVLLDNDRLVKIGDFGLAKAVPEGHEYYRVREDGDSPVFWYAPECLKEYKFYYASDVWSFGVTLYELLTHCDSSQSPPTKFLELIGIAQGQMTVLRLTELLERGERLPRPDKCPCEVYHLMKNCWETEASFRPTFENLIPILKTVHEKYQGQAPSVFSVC
Readings of pEC50 for the listed compounds
In simple prose, pEC50 is minus the logarithm base ten of a concentration in moles per litre.

Past entries and their recorded results:
CO[C@]1(c2cc(C#N)cc(-c3cn(C)c4cnc(NC(C)=O)cc34)n2)CCOC1 [US20190276450, Example 2.5] ... 6.16
CO[C@@]1(c2cc(C#N)cc(-c3cn(C)c4cnc(NC(N)=O)cc34)n2)CCOC1 [US20190276450, Example 12.3] ... 7.03
COc1cc(-c2cn(C)c3cnc(NC(C)=O)cc23)nc(C2(O)COC2)c1 [US20190276450, Example 14.2] ... 6.17

Please turn your attention to the following entry.
Specify reported pEC50 for the compound shown: Cn1cc(-c2cncc([C@@]3(C)CCOC3)n2)c2cc(NC(N)=O)ncc21 [US20190276450, Example 1b.6]
6.71

---

biological target: Tyrosine-protein kinase JAK1 (Homo sapiens); experiment: JAK1 (PSTAT3 TF1) Alpha Screen Assay
Sequence (P23458 whole entry): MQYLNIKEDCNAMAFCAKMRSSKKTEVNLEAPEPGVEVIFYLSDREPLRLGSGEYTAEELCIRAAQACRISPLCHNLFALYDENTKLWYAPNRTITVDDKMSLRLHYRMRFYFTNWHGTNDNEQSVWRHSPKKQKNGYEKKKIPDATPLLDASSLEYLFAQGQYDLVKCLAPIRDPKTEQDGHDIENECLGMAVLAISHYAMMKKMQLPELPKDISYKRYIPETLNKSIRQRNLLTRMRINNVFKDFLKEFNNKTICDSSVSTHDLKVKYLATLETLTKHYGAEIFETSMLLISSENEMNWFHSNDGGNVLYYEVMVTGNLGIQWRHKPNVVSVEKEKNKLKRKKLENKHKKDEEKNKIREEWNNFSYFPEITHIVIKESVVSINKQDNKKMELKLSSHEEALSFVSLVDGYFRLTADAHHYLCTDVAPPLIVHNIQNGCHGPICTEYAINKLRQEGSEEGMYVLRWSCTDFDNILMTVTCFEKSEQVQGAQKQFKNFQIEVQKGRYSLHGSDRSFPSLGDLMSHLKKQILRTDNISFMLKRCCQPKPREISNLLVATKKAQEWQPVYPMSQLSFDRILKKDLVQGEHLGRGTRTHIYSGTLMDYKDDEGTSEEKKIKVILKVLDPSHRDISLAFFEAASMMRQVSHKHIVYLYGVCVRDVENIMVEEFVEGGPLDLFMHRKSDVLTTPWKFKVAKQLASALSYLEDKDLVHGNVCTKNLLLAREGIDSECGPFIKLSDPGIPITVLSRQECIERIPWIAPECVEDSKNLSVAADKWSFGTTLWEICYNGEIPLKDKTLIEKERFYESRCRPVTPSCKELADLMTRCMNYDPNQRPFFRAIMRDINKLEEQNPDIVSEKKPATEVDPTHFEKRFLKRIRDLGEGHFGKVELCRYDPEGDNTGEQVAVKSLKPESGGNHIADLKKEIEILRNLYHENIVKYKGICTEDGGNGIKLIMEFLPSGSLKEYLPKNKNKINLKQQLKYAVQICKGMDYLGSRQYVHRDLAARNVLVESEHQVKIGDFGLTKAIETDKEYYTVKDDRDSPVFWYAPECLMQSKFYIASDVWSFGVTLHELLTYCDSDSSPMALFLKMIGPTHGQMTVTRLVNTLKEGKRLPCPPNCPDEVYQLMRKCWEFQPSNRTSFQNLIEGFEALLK
PROPERTY_LABEL: EC50

Past entries and their recorded results:
Cn1cc(-c2cccc(C3(O)COC3)n2)c2cc(NC(N)=O)ncc21 [US20190276450, Example 14] ... 11.1 µM
COc1cc(-c2cn(C)c3cnc(NC(C)=O)cc23)nc([C@]2(CO)CCOC2)c1 [US20190276450, Example 22.6] ... 11.1 µM

Please turn your attention to the following entry.
Provide measured EC50 on Tyrosine-protein kinase JAK1 (Homo sapiens) for CO[C@@]1(c2cccc(-c3cn([C@@H]4CC4(F)F)c4cnc(NC(N)=O)cc34)n2)CCOC1 [US20190276450, Example 1.2] please.
13.5 µM
